List of inhibition values.
- TESTED SYSTEM: Insulin-like growth factor 1 receptor (Homo sapiens) (UniProt P08069)
- Sequence (P08069 31-736 limits assumed): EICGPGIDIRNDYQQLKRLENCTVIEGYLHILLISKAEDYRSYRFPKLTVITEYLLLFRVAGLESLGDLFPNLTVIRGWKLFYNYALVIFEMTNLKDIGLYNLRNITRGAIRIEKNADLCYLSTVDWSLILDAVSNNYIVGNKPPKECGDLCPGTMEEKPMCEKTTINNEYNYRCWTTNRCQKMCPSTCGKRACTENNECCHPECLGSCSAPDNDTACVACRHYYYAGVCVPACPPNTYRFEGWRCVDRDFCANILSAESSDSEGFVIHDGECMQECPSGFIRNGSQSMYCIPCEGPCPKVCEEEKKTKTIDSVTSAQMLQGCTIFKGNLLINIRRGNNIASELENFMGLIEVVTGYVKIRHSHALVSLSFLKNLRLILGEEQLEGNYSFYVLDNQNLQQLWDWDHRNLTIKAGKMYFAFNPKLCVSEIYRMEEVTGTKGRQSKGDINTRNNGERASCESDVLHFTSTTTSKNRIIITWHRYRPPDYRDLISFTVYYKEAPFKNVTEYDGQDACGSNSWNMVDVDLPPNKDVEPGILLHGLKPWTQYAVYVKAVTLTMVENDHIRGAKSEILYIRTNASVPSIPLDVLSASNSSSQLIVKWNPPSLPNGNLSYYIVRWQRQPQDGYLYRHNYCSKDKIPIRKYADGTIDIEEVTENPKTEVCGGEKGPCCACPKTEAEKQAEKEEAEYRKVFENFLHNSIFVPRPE
- Sequence (P08069 741-1367 limits assumed): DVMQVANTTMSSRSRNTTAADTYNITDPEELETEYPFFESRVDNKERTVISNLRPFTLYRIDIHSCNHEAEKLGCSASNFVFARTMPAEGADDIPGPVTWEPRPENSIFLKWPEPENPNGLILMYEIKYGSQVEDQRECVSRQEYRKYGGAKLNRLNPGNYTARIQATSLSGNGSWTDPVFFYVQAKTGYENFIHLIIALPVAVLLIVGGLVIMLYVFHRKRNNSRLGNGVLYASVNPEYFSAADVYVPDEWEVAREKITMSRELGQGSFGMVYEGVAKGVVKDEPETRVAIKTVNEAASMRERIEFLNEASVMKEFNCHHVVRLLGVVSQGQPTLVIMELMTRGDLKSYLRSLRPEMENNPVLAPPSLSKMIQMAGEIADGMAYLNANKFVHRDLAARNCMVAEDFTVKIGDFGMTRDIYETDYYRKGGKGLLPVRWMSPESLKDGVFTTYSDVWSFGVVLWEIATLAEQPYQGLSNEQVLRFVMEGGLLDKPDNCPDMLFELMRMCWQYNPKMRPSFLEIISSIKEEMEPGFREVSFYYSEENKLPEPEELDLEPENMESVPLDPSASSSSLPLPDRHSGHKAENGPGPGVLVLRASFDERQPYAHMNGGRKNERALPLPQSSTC
- TEST SUMMARY: Inhibition of IGF1R at 10 uM by HTRF assay

Consider the reported inhibition for these molecules:
STRUCTURE: O=C(Nc1ccc(C(F)(F)F)cc1)c1nscc1NCc1cccnc1
TESTED SYSTEM: Insulin-like growth factor 1 receptor (Homo sapiens) (UniProt P08069)
OBSERVED RESULT: < 30%
--
STRUCTURE: O=C(Nc1ccc(Br)cc1)c1nscc1NCc1ccncc1
TESTED SYSTEM: Insulin-like growth factor 1 receptor (Homo sapiens) (UniProt P08069)
OBSERVED RESULT: < 30%
--
STRUCTURE: O=C(Nc1cccc(Br)c1)c1nscc1NCc1ccc2ccccc2n1
TESTED SYSTEM: Insulin-like growth factor 1 receptor (Homo sapiens) (UniProt P08069)
OBSERVED RESULT: < 30%
--
STRUCTURE: O=C(Nc1ccc(C(F)(F)F)c(Cl)c1)c1nscc1NCc1ccncc1
TESTED SYSTEM: Insulin-like growth factor 1 receptor (Homo sapiens) (UniProt P08069)
OBSERVED RESULT: < 30%
--
STRUCTURE: Cc1cc(NC(=O)c2nscc2NCc2ccncc2)ccc1C(F)(F)F
TESTED SYSTEM: Insulin-like growth factor 1 receptor (Homo sapiens) (UniProt P08069)
OBSERVED RESULT: < 30%

Q: Reported inhibition, molecule O=C(Nc1cccc(C(F)(F)F)c1)c1nscc1NCCc1ccc2c(c1)OCO2 : ____
Result: < 30%

Q: Reported inhibition, molecule Cc1ccc(NC(=O)c2nscc2NCc2ccncc2)c(F)c1 : ____
Result: < 30%

Q: Reported inhibition, molecule O=C(Nc1cccc(C(F)(F)F)c1)c1nscc1NCc1ccccn1 : ____
Result: < 30%

Q: Reported inhibition, molecule O=C(Nc1ccc(Cl)cc1)c1nscc1NCc1ccncc1 : ____
Result: < 30%
